Assay: Resistance to proteolytic degradation in fetal bovine serum
Type: in vitro ADME
Details: 25% fetal bovine serum in water, 37 °C, LC peak area, time 0 = 100; 0.5 h; replicate 2
No end group written: not given here.
Field: Peptide remaining. Provide a value for each of the substances that follow.
Respond numerically, and do not add a unit to the figure.

Notebook: SLGALINVLKSGG-NH2 [DV] , Peptide remaining read as 10.6

Notebook: FLGSLWRKAGTVF-NH2 [VD] , Peptide remaining read as 43.8

Notebook: FLGALWNVAKSVF-NH2 [VmCT1, reference compound] , Peptide remaining read as 24.4

Notebook: GLLKRIKTLL-NH2 [Anoplin, reference compound] , Peptide remaining read as 28.8

Notebook: ILGAILNVLKSLG-NH2 [PV] , Peptide remaining read as 85

Notebook: FLPLIGRVLSGIL-NH2 [Temporin A, reference compound] , Peptide remaining read as 0

###

Assay: Mouse body weight in the skin abscess infection model
Type: in vivo
Details: day 0 = 100, Day 3, replicate 3
No end group written: not given here.
ATTRIBUTE MEASURED: Mouse body weight, normalized to the weight at the beginning of the experiment
Respond numerically, and do not add a unit to the figure.

Notebook: FLGALWNVAKSVF-NH2 [VmCT1, reference compound] , Mouse body weight, normalized to the weight at the beginning of the experiment read as 105

Notebook: FLPLLWRVASGVF-NH2 [VT] , Mouse body weight, normalized to the weight at the beginning of the experiment read as 95

Notebook: FLGAIGNVLKSIL-NH2 [TV] , Mouse body weight, normalized to the weight at the beginning of the experiment read as 105

Notebook: FLPLIGRVLSGIL-NH2 [Temporin A, reference compound] , Mouse body weight, normalized to the weight at the beginning of the experiment read as 95

###

Assay: Mouse body weight in the skin abscess infection model
Assay type: in vivo
Settings: day 0 = 100, Day 4, replicate 1
Procedure: The anti-infective activity of the peptides VmCT1, temporin A, VT, and TV against A. baumannii ATCC 19606 was evaluated as described by Torres et al.[7],[83] Bacteria were grown in tryptic soy broth medium to an optical density of 0.5 at 600 nm. […] The excised area was homogenized using a bead beater for 20 min (25 Hz) and serially diluted for CFU quantification. […]
No end group written: not given here.
ATTRIBUTE MEASURED: Mouse body weight, normalized to the weight at the beginning of the experiment
Respond numerically, and do not add a unit to the figure.

Notebook: FLGALWNVAKSVF-NH2 [VmCT1, reference compound] , Mouse body weight, normalized to the weight at the beginning of the experiment read as 90

Notebook: FLGAIGNVLKSIL-NH2 [TV] , Mouse body weight, normalized to the weight at the beginning of the experiment read as 85

Notebook: FLPLLWRVASGVF-NH2 [VT] , Mouse body weight, normalized to the weight at the beginning of the experiment read as 95

Notebook: FLPLIGRVLSGIL-NH2 [Temporin A, reference compound] , Mouse body weight, normalized to the weight at the beginning of the experiment read as 95

###

Assay: Resistance to proteolytic degradation in fetal bovine serum
Format: in vitro ADME
Settings: 25% fetal bovine serum in water, 37 °C, LC peak area, time 0 = 100; 4 h; replicate 1
No end group written: not given here.
ATTRIBUTE MEASURED: Peptide remaining
Respond numerically, and do not add a unit to the figure.

Notebook: SLGALINVLKSGG-NH2 [DV] , Peptide remaining read as 0.0

Notebook: ILGAILNVLKSLG-NH2 [PV] , Peptide remaining read as 0

Notebook: FLGAIGNVLKSIL-NH2 [TV] , Peptide remaining read as 0

Notebook: SLLSLIRKLIT-NH2 [Decoralin, reference compound] , Peptide remaining read as 0.0

Notebook: GLGALLNVIKSGL-NH2 [AV] , Peptide remaining read as 26.2

Notebook: FLGALWNVAKSVF-NH2 [VmCT1, reference compound] , Peptide remaining read as 0.0

Notebook: FLGTLWGGAKGVF-NH2 [VP] , Peptide remaining read as 0.0

Notebook: FLPLIGRVLSGIL-NH2 [Temporin A, reference compound] , Peptide remaining read as 0

Notebook: FLGSLWRKAGTVF-NH2 [VD] , Peptide remaining read as 66.4

Notebook: ILGTILGLLKGL-NH2 [Protonectin, reference compound] , Peptide remaining read as 0.0

Notebook: FLPLLWRVASGVF-NH2 [VT] , Peptide remaining read as 0

Notebook: GLLKRIKTLL-NH2 [Anoplin, reference compound] , Peptide remaining read as 0.0
